# ASSAY_TARGET: T1, recombinant human IL-23 (p19/p40 heterodimer) (human, UniProt Q9NPF7 20-189; P29460 23-328)
# T1 sequence (looked up) 1: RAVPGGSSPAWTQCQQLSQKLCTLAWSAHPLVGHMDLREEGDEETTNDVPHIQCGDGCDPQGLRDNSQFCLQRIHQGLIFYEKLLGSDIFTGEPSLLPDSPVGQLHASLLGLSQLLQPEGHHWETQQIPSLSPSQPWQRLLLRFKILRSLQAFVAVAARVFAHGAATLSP
# T1 sequence (looked up) 2: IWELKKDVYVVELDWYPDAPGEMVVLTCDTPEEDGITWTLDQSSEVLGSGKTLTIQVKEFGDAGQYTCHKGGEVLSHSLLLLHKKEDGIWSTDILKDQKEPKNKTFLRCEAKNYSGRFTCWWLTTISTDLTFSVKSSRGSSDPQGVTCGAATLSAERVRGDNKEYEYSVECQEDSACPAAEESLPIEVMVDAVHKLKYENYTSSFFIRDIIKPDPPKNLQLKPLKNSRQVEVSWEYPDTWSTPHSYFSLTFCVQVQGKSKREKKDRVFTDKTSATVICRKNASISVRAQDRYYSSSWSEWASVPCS
# TEST_SUMMARY: cell-based or functional assay
VALUE_TYPE: IC50 pM, STAT3 activation in DB reporter cells (pM)
// return numeric value only (unit: pM, not printed)

Below, each entry is followed by its recorded IC50 pM, STAT3 activation in DB reporter cells result.
# BINDER, UNIT_ABBREVIATION, VALUE_MEASURED
records = [
    ("Hu-4 18006B** (recombinant, hIgG4) (antibody, V domains shown) VH: QVHLVQSGAEVKKPGASVKVSCKASGYTFSSYGINWVRQAPGQGLEWMGWISAYSGNTDYSQHLQGRVTMTTDTSTNTAYMELRSLRSDDTAVYYCARASANWYDYFDPWGQGTLVTVSS VL: EIVLTQSPDFQSVTPKEKVTITCRASQTIGGSLHWYQQKPDQSPKLLITYASQSFSGVPSRFSGSGSGTDFTLTIHSLEAEDAATYYCHQSSILPYTFGQGTKLEIK", "pM", 157),
    ("Hu-5 18006B (antibody, IgG2b, V domains shown, Purified from hybridoma) VH: QLQLQESGPGLVKPSETLSLTCTVSGGSISSSSFYWGWIRQPPGKGLEWIGSIYYSGSTYYNPSLKSRVTISVDTSKNQFSLKLSSVTAADTAVYFCARHGVRGVIPHFDYWGQGTLVTVSS VL: QTVLTQEPSFSVSPGGTVTLTCGLNSGSVSTIYYPSWYQQTPGQAPRALIYSTNTRSSGVPDRFSGSILGNKAALTITGAQADDESDYYCVLFLGSGLVFGGGTKLTVL", "pM", 226),
]

Consider the additional binder presented here.
What value of IC50 pM, STAT3 activation in DB reporter cells has been recorded for this entry: Hu-4 18006B (purified from hybridoma) (antibody, IgG2c, V domains shown) VH: QVHLVQSGAEVKKPGASVKVSCKASGYTFSSYGINWVRQAPGQGLEWMGWISAYSGNTDYSQHLQGRVTMTTDTSTNTAYMELRSLRSDDTAVYYCARASANWYDYFDPWGQGTLVTVSS VL: EIVLTQSPDFQSVTPKEKVTITCRASQTIGGSLHWYQQKPDQSPKLLITYASQSFSGVPSRFSGSGSGTDFTLTIHSLEAEDAATYYCHQSSILPYTFGQGTKLEIK
168
